# Lookup of reported Activity keyed by entry
test system: NIH3T3; assay: Cytoprotective activity against GOX-induced cytotoxicity in mouse NIH/3T3 cells assessed as LDH release at 10 uM treated for 5 hrs with 15 mU/ml GOX challenge by spectrophotometric method (reference value: 63.34 +/- 1.85%); type: functional
QUANTITY MEASURED: Activity (%)

INSERT INTO measurements (compound, quantity_measured, reported_result) VALUES
  ('C/C=C(/C)C(=O)O[C@@H]1c2c(ccc3ccc(=O)oc23)OC(C)(C)[C@@H]1O[C@@H]1O[C@H](CO)[C@@H](O)[C@H](O)[C@H]1O', 'Activity', 9.25),
  ('O=C(/C=C/c1ccc(O)cc1)c1ccc(O)cc1O', 'Activity', 22.67),
  ('O=C(CCc1ccc(O)cc1)c1ccc(O)cc1O', 'Activity', 12.69),
  ('CC(C)=CCCC(C)(O)C1Cc2c(O)ccc(C(=O)/C=C/c3ccc(O)cc3)c2O1 (stereo not given)', 'Activity', 15),
  ('C/C(=C\Cc1c(O)ccc(C(=O)/C=C/c2ccc(O)cc2)c1O)CCC(=O)O', 'Activity', 18.78),
  ('O=C1CC(c2ccc(O)cc2)Oc2cc(O)ccc21 (racemic)', 'Activity', 5.51),
  ('C=C(C)[C@H]1CC[C@](C)([C@@H](O)Cc2c(O)ccc(C(=O)/C=C/c3ccc(O)cc3)c2O)O1 (racemic)', 'Activity', 15.76),
  ('CO[C@H]1c2c(ccc3ccc(=O)oc23)O[C@@H]1C(C)(C)O', 'Activity', 4.2),
  ('CC(C)C(=O)O[C@@H]1Cc2c(ccc3ccc(=O)oc23)OC1(C)C', 'Activity', 19.53),
  ('Cc1c(C)c2c(c(C)c1O)CC[C@@](C)(CCC[C@H](C)CCC[C@H](C)CCCC(C)C)O2', 'Activity', 15.02);

###

system: Hep 3B2; assay: Cytoprotective activity against GOX-induced oxidative stress in human Hep3B cells assessed as cell survival at 1 uM treated for 5 hrs with 15 mU/ml GOX challenge by MTT assay (reference value: 41.51 +/- 1.39%); format: functional; details: read-out: Survival
Classification by viability at 1 µM | ranges: lower bin = under 60%, middle bin = from 60% up to 70%, upper bin = 70% and over

INSERT INTO results (compound, system, answer_label) VALUES
  ('O=C(CCc1ccc(O)cc1)c1ccc(O)cc1O', 'Hep 3B2', 'upper bin'),
  ('CC(C)C(=O)O[C@@H]1Cc2c(ccc3ccc(=O)oc23)OC1(C)C', 'Hep 3B2', 'lower bin'),
  ('CC(C)=CCCC(C)(O)C1Cc2c(O)ccc(C(=O)/C=C/c3ccc(O)cc3)c2O1 (stereo not given)', 'Hep 3B2', 'lower bin'),
  ('O=C1CC(c2ccc(O)cc2)Oc2cc(O)ccc21 (racemic)', 'Hep 3B2', 'upper bin'),
  ('Cc1c(C)c2c(c(C)c1O)CC[C@@](C)(CCC[C@H](C)CCC[C@H](C)CCCC(C)C)O2', 'Hep 3B2', 'middle bin'),
  ('C/C(=C\Cc1c(O)ccc(C(=O)/C=C/c2ccc(O)cc2)c1O)CCC(=O)O', 'Hep 3B2', 'lower bin'),
  ('CO[C@H]1c2c(ccc3ccc(=O)oc23)O[C@@H]1C(C)(C)O', 'Hep 3B2', 'upper bin'),
  ('O=C(/C=C/c1ccc(O)cc1)c1ccc(O)cc1O', 'Hep 3B2', 'middle bin'),
  ('C/C=C(/C)C(=O)O[C@@H]1c2c(ccc3ccc(=O)oc23)OC(C)(C)[C@@H]1O[C@@H]1O[C@H](CO)[C@@H](O)[C@H](O)[C@H]1O', 'Hep 3B2', 'middle bin');
